Test: steady-state plasma- and brain-tissue levels in mice
Conditions: mouse, brain, 10 mg/kg/day
observation type: Kp

molecule | value observed
CNC(=O)c1ccc(N2C(=S)N(c3cnc(C#N)c(C(F)(F)F)c3)C(=O)C23CCC3)cc1F | 0.293

From here, focus on the item given below.
Measured Kp, CNC(=O)c1ccc(N2C(=S)N(c3ccc(C#N)c(C(F)(F)F)c3)C(=O)C2(C)C)cc1F [MDV3100, reference compound] : 0.188

====

Assay: steady-state plasma and tumor-tissue concentrations in LNCaP/AR
Conditions: mouse, tumor, oral, 10 mg/kg/day
observation type: Kp
Lab note: jot down the number only; don't add units.

Input CNC(=O)c1ccc(N2C(=S)N(c3cnc(C#N)c(C(F)(F)F)c3)C(=O)C23CCC3)cc1F . Output Kp: 1.07
